- testDetails: qHTS assay to identify small molecule antagonists of the sonic hedgehog signaling (Shh) pathway (AID 1259369); also: nearly all actives have a fitted effect of over 45% in size
- testSettings: NIH/3T3 Gli1-Luc reporter, Shh antagonist, luminescence 24 h; series mostly up to 92.4 µM
Inconclusive results are not listed. The source made the active and inactive calls. Calls follow the shape of the full dose curve.
Would you mind answering with one of these outcomes? label 1 = active, label 0 = inactive

INPUT: # outcome recorded in this test, key = CC12CCC(CC1=O)C2(C)C (centres undefined)
OUTPUT: label 0

====

- tgt: Cytochrome P450 3A4 (Homo sapiens)
- testDetails: Cytochrome P450 Family 3 Subfamily A Member 4 (CYP3A4) small molecule antagonists: luciferase reporter qHTS assay (AID 1671201); also: nearly all actives have a fitted effect of over 50% in size
- testSettings: P450-Glo CYP3A4 enzyme, luciferin luminescence, 1 h; series mostly up to 115 µM
Records with an inconclusive call do not appear. Active and inactive are the calls of the source. Calls come from the whole dose curve; as a rule, active = well fitted inhibition curve with a large enough effect in the repeat runs; inconclusive = weak or mixed curves; inactive = no such curve, though single readings can be large or run the other way.
Would you mind answering with one of these outcomes? class 1 = active, class 0 = inactive

These recorded examples may help you get a feel for the data.
{"columns": ["compound", "assignedCategory"],
 "data": [
  ["C=C(C)C(=O)NCCC[N+](C)(C)C", "class 0"],
  ["CC(C)CCCCCCN", "class 0"],
  ["C1=C\\CC/C=C\\CC/C=C\\CC/1", "class 0"]
]}

INPUT: # outcome recorded in this test, key = CSc1nc(NC2CC2)nc(NC(C)(C)C)n1
OUTPUT: class 1

INPUT: # outcome recorded in this test, key = CC1=CC(C)C(C=O)C(C)C1 (configuration not stated)
OUTPUT: class 0

INPUT: # outcome recorded in this test, key = O=C(O)C(O)[C@H](O)[C@@H](O)[C@H](O)[C@H](O)CO (some centres not stated)
OUTPUT: class 0

INPUT: # outcome recorded in this test, key = [O-][N+](=Nc1ccccc1)c1ccccc1
OUTPUT: class 0

INPUT: # outcome recorded in this test, key = CCCc1ccccc1O
OUTPUT: class 0

====

- testDetails: A CellTox Green Cytotoxicity Assay to monitor cytotoxicity in HepG2 cells - 40 hour (AID 1224879); also: % is scaled to controls: 0 for no effect and ±100 for the full control effect; nearly all actives have a fitted effect of over 40% in size
- testSettings: CellTox Green fluorescence; series mostly up to 76.8 µM
Inconclusive results are not listed. Calls of active or inactive are those of the source. Calls follow the shape of the dose curve; as a rule, active = well fitted activation curve with a large enough effect in the repeat runs; inconclusive = weak or mixed curves; inactive = flat fitted curve, though single readings scatter.
quantityName: cytotoxicity increase

{"columns": ["compound", "cytotoxicity increase"],
 "data": [
  ["FC(F)(F)C(F)(F)C(F)(F)C(F)(F)C(F)(F)C(F)(F)C(F)(F)C(F)(F)C(F)(F)C(F)(F)F", "1.66% [at 6.97 µM] (inactive)"],
  ["Cc1c(F)cc2c(=O)c(C(=O)O)cn3c2c1CCC3C (stereo unspecified)", "inactive"],
  ["C=C(C)C(=O)OCCCCCCCCCCCCCCCCCC", "2.24% [at 15.8 µM] (inactive)"],
  ["COc1ccc(COC=O)cc1", "inactive"],
  ["Nc1nc(F)nc2c1ncn2[C@@H]1O[C@H](CO)[C@@H](O)[C@@H]1O", "inactive"]
]}

For the next question, use this compound.
So, CCC(=O)/C=C/c1ccc(OC)cc1 ? Its cytotoxicity increase was inactive

====

- testDetails: qHTS assay to identify small molecule antagonists of the sonic hedgehog signaling (Shh) pathway (AID 1259369); also: nearly all actives have a fitted effect of over 45% in size
- testSettings: NIH/3T3 Gli1-Luc reporter, Shh antagonist, luminescence 24 h; series mostly up to 92.4 µM
Inconclusive results are not listed. The source made the active and inactive calls. Calls follow the shape of the full dose curve.
Would you mind answering with one of these outcomes? Yes = active, No = inactive

INPUT: # outcome recorded in this test, key = NC(=O)Nc1nc2ccccc2[nH]1
OUTPUT: No

INPUT: # outcome recorded in this test, key = c1ccc(CCCc2ccccn2)cc1
OUTPUT: No

INPUT: # outcome recorded in this test, key = CC(C)(C)CC(C)(C)N
OUTPUT: No

INPUT: # outcome recorded in this test, key = NS(=O)(=O)c1cc2c(cc1Cl)NC(CSCc1ccccc1)=NS2(=O)=O
OUTPUT: No

INPUT: # outcome recorded in this test, key = N#CC1(O)CCCCC1
OUTPUT: Yes

INPUT: # outcome recorded in this test, key = Oc1cc(O)c2c(c1)O[C@H](c1ccc(O)c(O)c1)[C@H](O)C2
OUTPUT: No

INPUT: # outcome recorded in this test, key = COc1nc(C)nc(N)n1
OUTPUT: No

INPUT: # outcome recorded in this test, key = O=c1[nH]c(=O)n([C@H]2O[C@H](CO)[C@@H](O)[C@@H]2O)cc1/C=C\Br
OUTPUT: No

INPUT: # outcome recorded in this test, key = CC(C)=CCC/C(C)=C/C(=O)O
OUTPUT: No

INPUT: # outcome recorded in this test, key = C1C2OC2C2C1C1CC2C2OC12 (configuration not stated)
OUTPUT: No

INPUT: # outcome recorded in this test, key = CCN1CCCC(OC(=O)C(c2ccccc2)c2ccccc2)C1 (configuration not stated)
OUTPUT: No

INPUT: # outcome recorded in this test, key = CCN(CC)S(=O)(=O)c1ccc(C(=O)O)cc1
OUTPUT: No

INPUT: # outcome recorded in this test, key = CCCCCN(CCCCC)C(=O)C(CCC(=O)O)NC(=O)c1ccc(Cl)c(Cl)c1 (configuration not stated)
OUTPUT: No

INPUT: # outcome recorded in this test, key = CCOC(=O)[C@H](CCc1ccccc1)N[C@@H](C)C(=O)N1CCC[C@H]1C(=O)O
OUTPUT: No

INPUT: # outcome recorded in this test, key = CCCCCCC(CCCCCCCCCCC(=O)OCC(COC(C)=O)OC(C)=O)OC(C)=O (configuration not stated)
OUTPUT: Yes

INPUT: # outcome recorded in this test, key = CCCCCCCCCCC1CO1 (configuration not stated)
OUTPUT: No

INPUT: # outcome recorded in this test, key = COc1cc(O)cc(O)c1
OUTPUT: No

INPUT: # outcome recorded in this test, key = O=C1C(CCS(=O)c2ccccc2)C(=O)N(c2ccccc2)N1c1ccccc1 (configuration not stated)
OUTPUT: No
